ASSAY TARGET: T1, HLA-B*44:05 (human)
T1 construct: also called peptide-receptive MHC class I molecule
EXPERIMENTAL DETAILS: UV peptide exchange, anti-b2m ELISA
MEASURED PARAMETER: peptide exchange yield

QEPFTRPVL; 50 to 75%
MEFKTLNKN; 20 to 50%
AENPLNIFYI; 50 to 75%

Then this binder:
-- ask Answer with the recorded peptide exchange yield for the binder listed here: `SELGLPKEV`
-- reply 20 to 50%
